Source listed as patent US10766862B2.

# assaySystem: VEGFR2 (Homo sapiens, UniProt P35968)
# Construct: purchased Life technology
# Sequence (P35968 20-1356): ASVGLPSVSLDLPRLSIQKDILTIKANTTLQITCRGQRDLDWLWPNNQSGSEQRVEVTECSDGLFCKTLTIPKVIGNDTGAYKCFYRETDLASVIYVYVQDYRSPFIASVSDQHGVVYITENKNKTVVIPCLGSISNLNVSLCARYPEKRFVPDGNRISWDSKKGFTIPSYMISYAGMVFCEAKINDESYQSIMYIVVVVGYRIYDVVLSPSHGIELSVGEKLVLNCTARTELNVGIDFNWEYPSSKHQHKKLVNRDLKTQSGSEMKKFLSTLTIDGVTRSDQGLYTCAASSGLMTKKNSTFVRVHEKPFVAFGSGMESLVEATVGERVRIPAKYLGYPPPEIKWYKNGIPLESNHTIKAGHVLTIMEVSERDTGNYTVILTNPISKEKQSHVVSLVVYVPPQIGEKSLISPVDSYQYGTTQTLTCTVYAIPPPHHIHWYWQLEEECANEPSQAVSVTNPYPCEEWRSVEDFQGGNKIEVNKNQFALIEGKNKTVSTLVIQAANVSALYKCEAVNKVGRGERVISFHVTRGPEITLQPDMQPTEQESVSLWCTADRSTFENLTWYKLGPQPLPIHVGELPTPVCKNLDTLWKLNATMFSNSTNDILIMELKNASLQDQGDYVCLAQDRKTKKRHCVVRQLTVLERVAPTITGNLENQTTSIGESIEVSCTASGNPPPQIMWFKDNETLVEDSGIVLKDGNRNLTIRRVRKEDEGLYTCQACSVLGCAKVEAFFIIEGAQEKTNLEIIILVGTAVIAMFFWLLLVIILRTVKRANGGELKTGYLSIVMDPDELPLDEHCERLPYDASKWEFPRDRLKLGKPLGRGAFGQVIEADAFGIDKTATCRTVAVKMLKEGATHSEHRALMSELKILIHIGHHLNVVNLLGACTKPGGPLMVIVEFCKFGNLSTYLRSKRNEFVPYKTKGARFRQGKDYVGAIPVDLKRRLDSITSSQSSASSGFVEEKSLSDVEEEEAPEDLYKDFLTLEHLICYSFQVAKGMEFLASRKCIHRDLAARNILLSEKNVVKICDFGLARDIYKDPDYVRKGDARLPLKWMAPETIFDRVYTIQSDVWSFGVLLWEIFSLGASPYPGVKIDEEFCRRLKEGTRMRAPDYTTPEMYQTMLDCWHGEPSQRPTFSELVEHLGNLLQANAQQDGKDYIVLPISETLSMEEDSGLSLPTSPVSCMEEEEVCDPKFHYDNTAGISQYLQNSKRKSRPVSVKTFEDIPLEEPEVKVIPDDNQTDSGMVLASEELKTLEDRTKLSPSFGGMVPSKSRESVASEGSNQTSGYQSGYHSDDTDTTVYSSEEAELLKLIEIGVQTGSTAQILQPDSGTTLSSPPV
# testSummary: Z'-LYTE Detection Kinase Assay, VEGFR2 enzyme reaction
# Type: biochemical
# statedConditions: 100 μM ATP, 60 minutes, room temperature
pIC50: −log10 of the molar value.
measuredParameter: pIC50

Provide the reported pIC50 (system: VEGFR2 (Homo sapiens, UniProt P35968)) for COc1cc2nccc(Oc3ccc(NC(=S)NC4CC4)c(Cl)c3F)c2cc1C(N)=O [Compound 1]
> 7.30

###

# testSummary: physchem
# statedConditions: FeSSIF, pH 4.89, fessif, thermodynamic from solid
measuredParameter: solubility at 24 h (µg/mL)
Output spec: scalar in µg/mL, unitless text.

Give the reported solubility at 24 h for this compound. COc1cc2nccc(Oc3ccc(NC(=S)NC4CC4)c(Cl)c3F)c2cc1C(N)=O [Crystal form F]
70.1

###

# assaySystem: PDGFRB (Homo sapiens, UniProt P09619)
# Sequence (P09619 33-1106): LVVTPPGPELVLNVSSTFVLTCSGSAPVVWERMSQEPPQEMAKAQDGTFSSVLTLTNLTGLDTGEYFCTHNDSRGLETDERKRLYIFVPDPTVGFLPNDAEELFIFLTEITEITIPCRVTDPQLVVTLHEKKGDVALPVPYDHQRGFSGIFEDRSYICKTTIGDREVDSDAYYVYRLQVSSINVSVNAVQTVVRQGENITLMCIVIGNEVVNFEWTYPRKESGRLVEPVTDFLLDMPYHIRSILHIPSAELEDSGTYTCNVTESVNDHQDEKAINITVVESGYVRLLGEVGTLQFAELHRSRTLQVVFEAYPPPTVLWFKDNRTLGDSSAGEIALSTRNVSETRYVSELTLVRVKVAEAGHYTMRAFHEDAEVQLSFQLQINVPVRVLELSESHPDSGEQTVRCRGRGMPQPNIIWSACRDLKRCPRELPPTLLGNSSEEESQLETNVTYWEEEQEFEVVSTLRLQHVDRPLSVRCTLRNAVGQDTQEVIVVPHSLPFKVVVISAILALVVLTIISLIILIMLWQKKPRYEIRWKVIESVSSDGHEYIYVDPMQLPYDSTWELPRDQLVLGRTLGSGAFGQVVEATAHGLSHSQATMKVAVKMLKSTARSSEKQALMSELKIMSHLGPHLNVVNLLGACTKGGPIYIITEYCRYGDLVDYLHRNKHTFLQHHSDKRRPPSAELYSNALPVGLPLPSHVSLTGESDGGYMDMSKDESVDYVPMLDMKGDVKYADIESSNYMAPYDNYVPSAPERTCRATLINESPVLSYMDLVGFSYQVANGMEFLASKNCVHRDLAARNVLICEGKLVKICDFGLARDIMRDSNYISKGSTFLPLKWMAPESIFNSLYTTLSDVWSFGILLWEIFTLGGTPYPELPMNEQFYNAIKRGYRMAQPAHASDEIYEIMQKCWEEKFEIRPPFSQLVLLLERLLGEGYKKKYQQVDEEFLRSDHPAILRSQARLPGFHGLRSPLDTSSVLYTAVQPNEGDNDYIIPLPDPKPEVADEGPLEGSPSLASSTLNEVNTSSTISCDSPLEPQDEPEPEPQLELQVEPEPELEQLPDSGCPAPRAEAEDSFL
measuredParameter: IC50

Give the reported IC50 for this compound. COc1cc2nccc(Oc3ccc(NC(=S)NC4CC4)c(Cl)c3F)c2cc1C(N)=O
< 50 nM
